The reported numbers originate from patent US20260234283A1.

# Lookup of reported Kd keyed by entry
- System Name: recombinant human SIRPα-His V8 (human, UniProt P78324 31-370)
- Sequence (P78324 other isoform, or with tags, fused parts or gaps): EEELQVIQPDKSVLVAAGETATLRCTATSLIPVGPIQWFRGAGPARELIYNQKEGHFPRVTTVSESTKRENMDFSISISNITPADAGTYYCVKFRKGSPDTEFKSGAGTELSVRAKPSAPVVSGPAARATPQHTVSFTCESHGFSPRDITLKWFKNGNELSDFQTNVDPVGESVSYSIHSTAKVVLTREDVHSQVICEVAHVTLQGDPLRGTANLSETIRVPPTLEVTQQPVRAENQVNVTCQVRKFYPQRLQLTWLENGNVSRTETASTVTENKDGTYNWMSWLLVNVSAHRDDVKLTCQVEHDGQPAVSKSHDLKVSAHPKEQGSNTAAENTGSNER
- Assay Procedure: Biacore

Binder: 54.69B10.E7 (antibody, V domains shown) VH: EVQLVESGGGLVQPGGSLRLSCAASGFTFSSYDMHWVRQTTGKGLEWVSVIGIAGDTYYAGSVKGRFTISRENAKSSLYLQMNSLRAGDTAVYYCARGGNWDDAFDIWGQGTMVTVSS VL: DIQMTQSPSSLSASVGDRVTITCRASQDINNYLAWFQQKPGKAPKSLIYTTSSLQSGVPSKFSGSGSGTDFTLTISSLQPEDFATYYCQQYVSYPYTFGQGTKLEIK
Kd: < 0.1 nM
--
Binder: 54.58C2.B9.A2 (antibody, V domains shown) VH: EVQLVESGGGLVQPGGSLRLSCAASGFTFSSYDMHWVRQATGKGLEWVSVIGISGDTYYPGSVKGRFTISRENAKNSLYLQMNSLRAGDTAVYYCARGGNWDDAFDIWGQGTMVTVSS VL: DIQMTQSPSSLSASVGDRVTITCRASQDINNYLAWFQQKPGKAPKSLIYTTSSLQSGVPSKFSGSGSGTDFTLTISSLQPEDFATYYCQQYVSYPYTFGQGTKLEIK
Kd: < 0.1 nM

Value lookup for Kd; key = 54.76D9.B6 (antibody, V domains shown) VH: EVQLVESGGGLVQPGGSLRLSCAASGFTFSSYDMHWVRQATGKGLEWVSVIGISGDTYYPGSVKGRFTISRENAKNSLHLQMNSLRAGDTAVYYCARGGNWDDALDIWGQGTMVTVSS VL: DIQMTQSPSSLSASVGDRVTITCRASQDINNYLAWFQQKPGKAPKSLIYTTSSLQSGVPSKFSGSGSGTDFTLTISSLQPEDFATYYCQQYVSYPYTFGQGTKLEIK < 0.1 nM
